Target: PRMT5 (Homo sapiens, UniProt O14744)
Construct: purchased Viva (custom protein)
Sequence (O14744 whole entry): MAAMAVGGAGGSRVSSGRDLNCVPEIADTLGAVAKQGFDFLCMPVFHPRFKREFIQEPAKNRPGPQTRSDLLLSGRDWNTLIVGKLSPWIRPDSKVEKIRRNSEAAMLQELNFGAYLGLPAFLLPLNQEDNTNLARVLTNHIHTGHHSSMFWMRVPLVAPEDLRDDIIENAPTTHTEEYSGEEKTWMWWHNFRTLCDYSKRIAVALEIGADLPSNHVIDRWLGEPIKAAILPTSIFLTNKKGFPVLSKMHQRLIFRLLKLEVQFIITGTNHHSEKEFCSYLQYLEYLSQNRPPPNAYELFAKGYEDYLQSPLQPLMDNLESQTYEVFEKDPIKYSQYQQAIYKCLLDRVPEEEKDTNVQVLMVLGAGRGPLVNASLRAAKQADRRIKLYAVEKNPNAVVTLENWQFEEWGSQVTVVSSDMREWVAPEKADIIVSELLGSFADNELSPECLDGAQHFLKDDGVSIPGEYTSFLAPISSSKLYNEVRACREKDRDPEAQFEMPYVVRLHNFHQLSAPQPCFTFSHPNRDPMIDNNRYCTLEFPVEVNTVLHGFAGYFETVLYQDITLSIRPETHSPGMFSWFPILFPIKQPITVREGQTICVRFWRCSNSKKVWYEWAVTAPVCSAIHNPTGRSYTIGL
Sequence (Q9BQA1 whole entry partner): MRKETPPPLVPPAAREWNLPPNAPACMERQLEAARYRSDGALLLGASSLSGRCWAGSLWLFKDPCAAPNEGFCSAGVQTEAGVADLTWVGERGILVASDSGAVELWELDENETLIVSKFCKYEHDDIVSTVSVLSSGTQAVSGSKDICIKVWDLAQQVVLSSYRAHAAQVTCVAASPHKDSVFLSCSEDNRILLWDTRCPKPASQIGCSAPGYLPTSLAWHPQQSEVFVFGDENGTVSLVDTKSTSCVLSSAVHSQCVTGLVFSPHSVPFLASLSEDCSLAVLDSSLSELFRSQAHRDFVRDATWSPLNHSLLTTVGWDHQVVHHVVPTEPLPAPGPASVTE
Test: PRMT5 biochemical IC50 assay with SAM as cofactor
Details: PRMT5, SAM as cofactor; read-out: SAM IC50
pIC50: −log10 of the molar value.
endpoint_label: pIC50

Here's what some known entries look like.
compound="Cc1ccc([C@H]2CC(F)(F)[C@H](C)CN2C(=O)C(=O)Nc2cnc(N)c(C)c2)cn1 (single isomer, unassigned) [Compound 973]" subject_of_test="PRMT5 (Homo sapiens, UniProt O14744)" endpoint_label=pIC50 value="6.30 to 7.30"
compound="Cc1cc(NC(=O)C(=O)N2C[C@H](C)CC[C@H]2c2cccc(N(C)C)c2)cnc1N (single isomer, unassigned) [Compound 386]" subject_of_test="PRMT5 (Homo sapiens, UniProt O14744)" endpoint_label=pIC50 value="6.30 to 7.30"
compound="CCOc1ncc(NC(=O)C(=O)N2C[C@@H](C)CC[C@@H]2c2ccccc2)cc1C(N)=O (single isomer, unassigned) [Compound 764]" subject_of_test="PRMT5 (Homo sapiens, UniProt O14744)" endpoint_label=pIC50 value="6.30 to 7.30"

Entry CCc1cc(NC(=O)C(=O)N2C[C@H](C)CC[C@H]2c2ccc3sc(N)nc3c2)cnc1N (single isomer, unassigned) [Compound 984] — recorded pIC50 = < 6.30

Entry Cc1cc(NC(=O)C(=O)N2C[C@H](C)CC[C@H]2c2cccc(C3CCN(C)CC3)c2)cnc1N (racemic) [Compound 1149] — recorded pIC50 = 6.30 to 7.30

Entry C[C@@H]1CC[C@@H](c2cccs2)N(C(=O)C(=O)Nc2cncc(C(N)=O)c2)C1 (racemic) [Compound 99] — recorded pIC50 = 6.30 to 7.30

* * *

Test system: HAP1 MTAP-deleted cell line
Assay: Viability assay, MTAP-deleted cell line
Format: cell-based
Conditions: Homo sapiens, HAP1, viability, HAP1 MTAP-deleted cell line; read-out: HAP1 MTAP deleted viability
pIC50: −log10 of the molar value.
endpoint_label: pIC50

Record `CCc1cc(NC(=O)C(=O)N2C[C@@H](C)CC[C@@H]2c2cccc(N3CCN(C)CC3)c2)cnc1N` ; system HAP1 MTAP-deleted cell line; pIC50 = > 6.00

Record CCc1cc(NC(=O)C(=O)N2C[C@@H](C)CC[C@@H]2c2ccc(N3C[C@H]4CN(C)CC[C@H]4C3)cc2)cnc1N (racemic) ; system HAP1 MTAP-deleted cell line; pIC50 = > 6.00

Record Cc1nc2cc([C@H]3CC[C@H](C)CN3C(=O)C(=O)Nc3cnc(N)c(C4CC4)c3)ccc2s1 (single isomer, unassigned) ; system HAP1 MTAP-deleted cell line; pIC50 = > 6.00

Record Cc1cc(NC(=O)C(=O)N2C[C@@H](C)[C@H](OC(C)C)C[C@@H]2c2ccccc2)cnc1N (single isomer, unassigned) ; system HAP1 MTAP-deleted cell line; pIC50 = 5.00 to 6.00

Record `COc1ncc(NC(=O)C(=O)N2C[C@@H](C)CC[C@@H]2c2cccc(N3CCN(C)CC3)c2)cc1C(N)=O` ; system HAP1 MTAP-deleted cell line; pIC50 = > 6.00

Record CCc1cc(NC(=O)C(=O)N2C[C@H](C)CC[C@H]2c2ccc3sc(CCOC)nc3c2)cnc1N (single isomer, unassigned) ; system HAP1 MTAP-deleted cell line; pIC50 = < 5.00
